Below, each of the molecules is paired with its reported Vmax/Km value.
- PROTOCOL NOTES: Hydrolyzability test in rat liver microsome solution
- Assay type: in vitro ADME

# MOLECULE, Vmax/Km [min⁻¹]
records = [
    ("CNCC(=O)Oc1c(C)c(C)c2c(c1C)CC[C@@](C)(CC/C=C(\\C)CC/C=C(\\C)CCC=C(C)C)O2.Cl [d-α-T3MA]", 0.01111),
    ("CC(C)=CCC/C(C)=C/CC/C(C)=C/CC[C@]1(C)CCc2cc(OC(=O)CCC(=O)O)c(C)c(C)c2O1 [d-γ-T3S, d-γ-tocotrienolsuccinic acid ester, reference compound]", 0.03244),
    ("CC(C)=CCC/C(C)=C/CC/C(C)=C/CC[C@]1(C)CCc2c(C)c(OC(=O)CCC(=O)O)c(C)c(C)c2O1 [d-α-T3S, d-α-tocotrienolsuccinic acid ester, reference compound]", 0.001846),
    ("CC(C)=CCC/C(C)=C/CC/C(C)=C/CC[C@]1(C)CCc2c(C)c(OC(=O)CN(C)C)c(C)c(C)c2O1.Cl [d-α-T3DMA]", 0.02455),
]

Data provenance: patent US6599933B2
